# TARGET UNDER TEST: Carbonic anhydrase 2 (Homo sapiens)
# ASSAY REMARKS: CAII small-molecule binders, profiling panel, biochemical, small-molecule microarray, Alexa647-labelled CAII (AID 1122)
# MEASUREMENT SETUP: CAII-A647 binding fluorescence, higher = more signal
Output Criterion met for composite z-score not less than -0.05; output Criterion not met otherwise.

# MOLECULE, CATEGORY
rows = [
    ("CO[C@@H]1C=CCC(=O)N[C@@H](C)C(=O)OC[C@@H](OC)[C@H](C)CCCC(=O)OC[C@H]1C", "Criterion not met"),
    ("C=CC[C@@H]1C=C[C@H](ON=C(C)CCN2CCc3nc(-c4ccccc4)c(-c4ccccc4)cc3C2)[C@@H](CO)O1", "Criterion met"),
    ("C#CCCCON=C1[C@H]2CCn3c(=O)n(-c4ccccc4)c(=O)n3[C@H]2[C@H](O)[C@@H]2O[C@H]12", "Criterion not met"),
    ("O=C1[C@H]2[C@H]3[C@H](O)[C@H](O)CC(=NOC[C@@H](O)COCc4ccco4)[C@H]3CC[C@H]2C(=O)N1c1ccc(F)cc1F", "Criterion met"),
    ("COc1ccc(O[C@H]2C=C[C@@H](c3ccccc3)O[C@@H]2CON=C2[C@H]3CCn4c(=O)n(-c5ccccc5)c(=O)n4[C@H]3[C@H](O)[C@@H]3O[C@H]23)cc1", "Criterion met"),
    ("CON=C1[C@H]2CCn3c(=O)n(-c4ccccc4)c(=O)n3[C@H]2[C@H](O)[C@@H]2O[C@H]12", "Criterion met"),
    ("COC(=O)CC=C[C@@H](C)[C@@H](C=NO[C@@H]1O[C@H](COC(C)=O)[C@@H](OC(C)=O)[C@H](OC(C)=O)[C@H]1OC(C)=O)NS(=O)(=O)c1ccc(C)cc1", "Criterion not met"),
    ("CC(=O)OC[C@H]1O[C@H](CCON=C2[C@H]3CCn4c(=O)n(-c5ccccc5)c(=O)n4[C@H]3[C@H](O)[C@@H]3O[C@H]23)C=C[C@@H]1OC(C)=O", "Criterion met"),
    ("CO[C@H]1COC(=O)[C@@H](C)COC(=O)[C@@H](OCc2ccccc2)C=C[C@@H]1C", "Criterion not met"),
    ("CC(C)=NOC[C@@H](C)[C@H](OCc1ccccc1)C(C)C", "Criterion not met"),
    ("CO[C@H]1COC(=O)CC=C[C@H](C)COC(=O)[C@@H](C)NC(=O)CC=C[C@@H]1C", "Criterion not met"),
    ("CC(C)CCN1CCc2nc(COc3ccccc3)c3c(c2C1)CO[C@@H](C)C3", "Criterion met"),
    ("COC(=O)[C@@H]1CC[C@H](C)[C@@H](c2ccc(C)cc2)N1C(=O)c1ccc(C=NO[C@@H]2O[C@H](COC(C)=O)[C@@H](OC(C)=O)[C@H](OC(C)=O)[C@H]2OC(C)=O)cc1", "Criterion met"),
    ("COC(=O)CC=C[C@@H](C)[C@@H](C=NOC[C@H]1O[C@H](c2ccccc2)C=C[C@@H]1Oc1ccc(OC)cc1)OC", "Criterion not met"),
    ("CCCNC(=O)OC[C@H]1O[C@H](CCON=C(C)C)C=C[C@@H]1Oc1ccc(OC)cc1", "Criterion met"),
    ("CC(=O)O[C@H]1C2=CO[C@H](C)[C@H]3[C@H]4C5=C([C@H](O)[C@H]6O[C@H]6C5=O)[C@H](OC4C)[C@@]23C(=O)[C@@H]2O[C@@H]21 (stereo not given in full)", "Criterion met"),
    ("CO[C@@H]1COC(=O)CC=C[C@@H](C)[C@H](OC)COC(=O)[C@@H](C)COC(=O)CC=C[C@H]1C", "Criterion not met"),
    ("CON=C[C@@H](NS(=O)(=O)c1ccc(C)cc1)[C@H](C)C=CCC(=O)OC", "Criterion not met"),
    ("CC(C)=CCCC(C)=CCON=C1C[C@@H](O)[C@@H](O)[C@@H]2[C@@H]3C(=O)N(C(C)(C)C)C(=O)[C@@H]3CC[C@@H]12", "Criterion met"),
    ("C[C@H]1Cc2c(COc3ccccc3)nc3c(c2CO1)CN(CCOc1ccccc1)CC3", "Criterion met"),
    ("CC(C)=CCCC(C)=CCON=C1C[C@@H](O)[C@@H](O)[C@@H]2[C@@H]3C(=O)N(c4ccc(F)cc4F)C(=O)[C@@H]3CC[C@H]12", "Criterion met"),
    ("COc1cc(O)c(C(=O)C=Cc2ccc3c(c2)OCO3)c(OC)c1", "Criterion not met"),
    ("CC(CCC(=O)OC[C@H]1O[C@H](C#Cc2ccccc2)C=C[C@@H]1Oc1ccc(C)cc1)=NO[C@H](C)c1cn([C@H](CO)Cc2ccccc2)nn1", "Criterion met"),
    ("CCCNC(=O)OC[C@H]1O[C@H](CCON=C(C)CCN2CCc3nc(CC)c(CC)cc3C2)C=C[C@@H]1Oc1ccc(OC)cc1", "Criterion not met"),
    ("CCN1C(=O)[C@@H]2[C@H]3C(=CC[C@@H]2C1=O)C1(OCCCO1)[C@H]1O[C@H]1[C@H]3O", "Criterion met"),
    ("CCCCC#C[C@@H]1C=C[C@H](OC(C)=O)[C@@H](COC(C)=O)O1", "Criterion not met"),
    ("CCOC(=O)[C@H](Cc1ccccc1)NC(=O)CCC1CC(OC(=O)NCc2cccc3ccccc23)CC2(CCCC(COC(=O)NCCC(C)C)O2)O1 (stereo not given in full)", "Criterion met"),
    ("CO[C@@H]1COC(=O)[C@@H]2CCCN2C(=O)[C@@H](C)COC(=O)CC=C[C@H]1C", "Criterion met"),
    ("CCc1cc2c(nc1CC)CCN(CCC(C)=NO[C@@H](C)c1cn([C@H](CO)Cc3ccccc3)nn1)C2", "Criterion met"),
    ("COc1ccc(O[C@H]2C=C[C@@H](c3ccccc3)O[C@@H]2CON=C(C)CCN2CCc3nc(-c4ccccc4)c(-c4ccccc4)cc3C2)cc1", "Criterion not met"),
]
